Where do these numbers come from? They come from the RNAGym collection of RNA variant scans (doi:10.1073/pnas.2313332121).

The reader will find reported polymerase ribozyme fitness (log ratio) values listed item by item below.
B1: TPR 5TU (parent)
chain: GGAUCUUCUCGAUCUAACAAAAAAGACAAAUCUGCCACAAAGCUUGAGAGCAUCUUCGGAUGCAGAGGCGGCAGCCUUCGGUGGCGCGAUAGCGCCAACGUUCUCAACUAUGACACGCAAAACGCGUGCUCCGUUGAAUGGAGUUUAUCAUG

Variants of: B1
Experiment: polymerase ribozyme fitness, log enrichment relative to wild type (log ratio); higher = more active; in vitro selection for triplet polymerase activity
Fewer inactive variants are shown than the library holds.

# return recorded polymerase ribozyme fitness (log ratio) for input C38G G92A C105G
≤ -4.2

Give a short answer stating reported polymerase ribozyme fitness (log ratio) for C10A A28G U56G C85A .
≤ -4.2

Return value of polymerase ribozyme fitness (log ratio) for input A30G A47U G50C G80C C96U C103U , no commentary.
≤ -4.2

Kindly indicate its recorded polymerase ribozyme fitness (log ratio). Item: U53A C75G U109G U139C
≤ -4.2

State its polymerase ribozyme fitness (log ratio): C72A A91U U145A
≤ -4.2

Output polymerase ribozyme fitness (log ratio) of G11A C93G
≤ -4.2

Please supply the value of reported polymerase ribozyme fitness (log ratio) for the item U7A A29C C85U C87U G143C A150G
≤ -4.2

Supply measured polymerase ribozyme fitness (log ratio) of A20U C57U G59U G62U C76U C96G A147G in your reply.
≤ -4.2

Hello, please tell me recorded polymerase ribozyme fitness (log ratio) for this one: G50A C57U C85U G128A
≤ -4.2

Give me measured polymerase ribozyme fitness (log ratio), please, for this variant: C14U A28U A122G G141C
-4.15

Please give measured polymerase ribozyme fitness (log ratio) of the following entry: U56G C63U C93G
-3.47

Check the records and state polymerase ribozyme fitness (log ratio) for C18U U55G C75U G92C
-1.73
